- Tested on: lambsquarters (Chenopodium album)
- experiment: Test C preemergence
- Assay type: in vivo
- condition description: preemergence, Rate 31 g/ha, scale 0 to 100

compound: CC(C)(C)c1ccn(C2CCN(c3ccc(Cl)c(Cl)c3)C2=O)n1 (centres unmarked)
Plant response rating, Lambsquarters: 90
//
compound: CC(C)c1ccn(C2OCN(c3cccc(C(F)(F)F)c3)C2=O)n1 (centres unmarked)
Plant response rating, Lambsquarters: 100
//
compound: CCCC(C)c1ccn(C2SCN(c3cccc(OC(F)(F)F)c3)C2=O)n1 (centres unmarked)
Plant response rating, Lambsquarters: 10
//
compound: O=C1C(n2ccc(C3CCC3)n2)SCN1c1cccc(C(F)(F)F)c1 (centres unmarked)
Plant response rating, Lambsquarters: 100
//
compound: CC(C)OC(=O)c1cccc(N2CCC(n3ccc(C(C)(C)C)n3)C2=O)c1 (centres unmarked)
Plant response rating, Lambsquarters: 45

----------
- Tested on: Sunflower
- experiment: Test C preemergence
- Assay type: in vivo
- condition description: Rate 125 g/ha; scale 0 to 100, 0 no effect, 100 complete control

molecule: CCC(C)c1ccn(C2CCN(c3ccc(Cl)c(OC)c3)C2=O)n1 (stereo not drawn)
Plant response rating, Sunflower: 40
//
molecule: CCC(CC)c1ccn(C2CCN(c3ccc(C)c(OC)c3)C2=O)n1 (stereo not drawn)
Plant response rating, Sunflower: 0
//
molecule: COc1cc(N2CCC(n3ccc(C(C)C)n3)C2=O)ccc1Br (stereo not drawn)
Plant response rating, Sunflower: 50
//
molecule: CCOc1cccc(N2CCC(n3ccc(C(C)(C)C)n3)C2=O)c1 (stereo not drawn)
Plant response rating, Sunflower: 60
//
molecule: CCCC(C)c1ccn(C2CCN(c3cccc(C(F)(F)F)c3)C2=O)n1 (stereo not drawn)
Plant response rating, Sunflower: 0
//
molecule: CCCC(C)c1ccn(C2OCN(c3cccc(OC(F)(F)F)c3)C2=O)n1 (stereo not drawn)
Plant response rating, Sunflower: 0
//
molecule: CCC(CC)c1ccn(C2CCN(c3cccc(OC)c3)C2=O)n1 (stereo not drawn)
Plant response rating, Sunflower: 0
//
molecule: CC(C)(C)c1ccn(C2CCN(c3ccc(F)c(Br)c3)C2=O)n1 (stereo not drawn)
Plant response rating, Sunflower: 0
//
molecule: COc1cc(N2CCC(n3ccc(C(C)(C)C)n3)C2=O)ccc1Cl (stereo not drawn)
Plant response rating, Sunflower: 40

----------
Each entry below lists one item and its recorded Plant response rating, Crabgrass value.
- Tested on: crabgrass (Digitaria sanguinalis)
- experiment: Test C preemergence
- Type: in vivo
- condition description: preemergence, Rate 62 g/ha, scale 0 to 100

compound: CCCC(C)c1ccn(C2CCN(c3ccc(Cl)c(OC)c3)C2=O)n1 (stereo not drawn) [Compound 121]
target or test system: crabgrass (Digitaria sanguinalis)
Plant response rating, Crabgrass: 100

compound: COc1cc(N2CCC(n3ccc(C(C)(C)C)n3)C2=O)ccc1Cl (stereo not drawn) [Compound 117]
target or test system: crabgrass (Digitaria sanguinalis)
Plant response rating, Crabgrass: 100

compound: CCC(CC)c1ccn(C2OCN(c3cccc(OC(F)F)c3)C2=O)n1 (stereo not drawn) [Compound 131]
target or test system: crabgrass (Digitaria sanguinalis)
Plant response rating, Crabgrass: 100

compound: CCCC(C)c1ccn(C2OCN(c3cccc(C(F)(F)F)c3)C2=O)n1 (stereo not drawn) [Compound 89]
target or test system: crabgrass (Digitaria sanguinalis)
Plant response rating, Crabgrass: 20

compound: CCC(C)c1ccn(C2CCN(c3ccc(Cl)c(OC)c3)C2=O)n1 (stereo not drawn) [Compound 119]
target or test system: crabgrass (Digitaria sanguinalis)
Plant response rating, Crabgrass: 100

compound: CCCOc1cc(N2CCC(n3ccc(C(C)(C)C)n3)C2=O)ccc1C (stereo not drawn) [Compound 107]
target or test system: crabgrass (Digitaria sanguinalis)
Plant response rating, Crabgrass: 100

compound: CCC(C)c1ccn(C2CCN(c3ccc(F)c(C(F)(F)F)c3)C2=O)n1 (stereo not drawn) [Compound 145]
target or test system: crabgrass (Digitaria sanguinalis)
Plant response rating, Crabgrass: 100

compound: CC(C)(C)c1ccn(C2CCN(c3cccc(I)c3)C2=O)n1 (stereo not drawn) [Compound 88]
target or test system: crabgrass (Digitaria sanguinalis)
Plant response rating, Crabgrass: 100

compound: CCOc1cc(N2CCC(n3ccc(C(C)(C)C)n3)C2=O)ccc1C (stereo not drawn) [Compound 106]
target or test system: crabgrass (Digitaria sanguinalis)
Plant response rating, Crabgrass: 100

compound: COc1cc(N2CCC(n3ccc(C(C)C)n3)C2=O)ccc1Cl (stereo not drawn) [Compound 120]
target or test system: crabgrass (Digitaria sanguinalis)
Plant response rating, Crabgrass: 100

compound: CCC(CC)c1ccn(C2CCN(c3cccc(OC(C)C)c3)C2=O)n1 (stereo not drawn) [Compound 84]
target or test system: crabgrass (Digitaria sanguinalis)
Plant response rating, Crabgrass: 90

compound: CCCC(C)c1ccn(C2CCN(c3cccc(OCC)c3)C2=O)n1 (stereo not drawn) [Compound 129]
target or test system: crabgrass (Digitaria sanguinalis)
Plant response rating, Crabgrass: 100

compound: CCCC(C)c1ccn(C2CCN(c3cccc(C(F)(F)F)c3)C2=O)n1 (stereo not drawn) [Compound 100]
target or test system: crabgrass (Digitaria sanguinalis)
Plant response rating, Crabgrass: 100

compound: CC(C)OC(=O)c1cccc(N2CCC(n3ccc(C(C)(C)C)n3)C2=O)c1 (stereo not drawn) [Compound 124]
target or test system: crabgrass (Digitaria sanguinalis)
Plant response rating, Crabgrass: 90

compound: CCC(C)Oc1cccc(N2CCC(n3ccc(C(C)(C)C)n3)C2=O)c1 (stereo not drawn) [Compound 127]
target or test system: crabgrass (Digitaria sanguinalis)
Plant response rating, Crabgrass: 50

The values you see were collected from patent US7138361B2.
